Form field: Relative Effectiveness (one value per entry).
tested on: succinoxidase system of beef heart mitochondria; assay: CoQ activity: restoring succinoxidase activity of pentane-extracted beef heart mitochondria (manometric); format: biochemical; conditions: molar amounts of analog and CoQ4 required to restore the same level of succinoxidase to PEBHM; relative to CoQ4

{"columns": ["COMPOUND", "Relative Effectiveness, %"],
 "data": [
  ["CCCCCC1=C(C)C(=O)C(OC)=C(OC)C1=O [Pentyl]", 5.7],
  ["COC1=C(OC)C(=O)C(C/C=C(\\C)CC/C=C(\\C)CC/C=C(\\C)CC/C=C(\\C)CC/C=C(\\C)CC/C=C(\\C)CCC=C(C)C)=C(C)C1=O [CoQ7, reference compound]", 8.2],
  ["COC1=C(OC)C(=O)C(C/C=C(\\C)CC/C=C(\\C)CC/C=C(\\C)CC/C=C(\\C)CC/C=C(\\C)CC/C=C(\\C)CC/C=C(\\C)CC/C=C(\\C)CC/C=C(\\C)CCC=C(C)C)=C(C)C1=O [CoQ10, coenzyme Q10, reference compound]", 4.8],
  ["CCCCCCCCCCCCCCCCCCCCC1=C(C)C(=O)C(OC)=C(OC)C1=O [Eicosyl]", 4.5],
  ["CCCCCCC=CCCCCCCCC1=C(C)C(=O)C(OC)=C(OC)C1=O [8'-Pentadecenyl]", 58],
  ["CCCCCCCCC=CCCCCCCCCCC1=C(C)C(=O)C(OC)=C(OC)C1=O [10'-Nonadecenyl]", 28],
  ["COC1=C(OC)C(=O)C(C/C=C(\\C)CC/C=C(\\C)CC/C=C(\\C)CCC=C(C)C)=C(C)C1=O [CoQ4, reference compound]", 100]
]}
